Data origin: PubChem BioAssay

test system: Sonic hedgehog protein (Shh); experiment: Sonic hedgehog microarray binding compounds – biochemical, small-molecule microarray, 635/667 nm fluorescence, primary screen (AID 1151); details: 635 nm fluorescence, higher = more signal;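 also: Shh protein binding to compounds spotted on small-molecule microarray slides; score combines spot fluorescence intensity with signal-to-noise across triplicate slides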
value.kind: composite z-score
Answer using only a numeral; do not append any unit.

structure_string=COC(=O)C(CC#Cc1ccc2c(c1)[C@]1(C(=O)N2)[C@H](c2ccc(OCCO)cc2)N2[C@H](c3ccccc3)[C@H](c3ccccc3)OC(=O)[C@H]2[C@@H]1C(=O)N1CCCCCCC1)C(=O)OC value_kind="composite z-score" assay_result=0.582
structure_string=CN(C)CCCNC(=O)[C@@H]1c2ccccc2C(=O)N(Cc2ccccc2C(F)(F)F)[C@H]1c1ccc(CO)cc1 value_kind="composite z-score" assay_result=0.547
structure_string=COc1cc(CO)cc(I)c1O[C@H]1C=C(C(=O)NCCO)C[C@@H]2O[C@H]12 value_kind="composite z-score" assay_result=1.59
structure_string=COc1ccc([Si](C)(C)[C@@H]2[C@@H](CC(=O)N3Cc4ccccc4C[C@H]3CO)O[C@]3(C(=O)N(Cc4ccc(N5CCOC5=O)cc4)c4ccccc43)[C@H]2C)cc1 value_kind="composite z-score" assay_result=1.96
structure_string=COCC(=C=CC[C@H](O)c1ccccc1OCCO)C[C@H](O)COCc1ccccc1 value_kind="composite z-score" assay_result=1.73
structure_string=COCCOC(=O)N1C(=O)[C@@]2(c3cc(C#CCCO)ccc31)[C@H](c1ccc(OCCO)cc1)N1[C@H](c3ccccc3)[C@H](c3ccccc3)OC(=O)[C@H]1[C@@H]2C(=O)N1CCCCCCC1 value_kind="composite z-score" assay_result=1.97

Here is the next item to consider.
Per the record, "Cc1ccc(F)cc1S(=O)(=O)N[C@H]1CCN(Cc2ccc(OC(C)C)cc2)C1" has composite z-score of 1.75

###

experiment: calcein-AM signal in unstimulated myeloma cells – cell-based, calcein-AM fluorescence, 48 h, PK04 Diversity Set, profiling panel (AID 1166); details: RPMI8226 myeloma viability, higher = more signal;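 also: cells grown under basal conditions without added stimulus; test concentration not given here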
value.kind: z-score
Answer using only a numeral; do not append any unit.

Examples from the recorded data:
compound="O=C1C2C=CC(C(O)c3c(F)cccc3Cl)N(Nc3ccc([N+](=O)[O-])cc3)C2C(=O)N1c1ccccc1 (stereo not given)" assay_result=-1.09
compound="Cc1ccc(C(C)CC(O)C2C=CC3C(=O)N(C)C(=O)C3N2Nc2ccccc2)o1 (stereo not given)" assay_result=0.0166
compound=COCCOC(=O)N1C(=O)[C@@]2(c3cc(C#CCC(C(=O)OC)C(=O)OC)ccc31)[C@H](C(=O)Nc1nc3ccccc3s1)[C@H]1C(=O)O[C@H](c3ccccc3)[C@H](c3ccccc3)N1[C@@H]2c1ccc(O)cc1 assay_result=-0.23

Per the record, O=C(NCC(O)CO)C1N=C(c2ccc(OCCCO)cc2)N(c2ccccc2)O1 (stereo not given) has z-score of -1.53

Per the record, "COCCCN1C(=O)[C@@]2(c3ccc([N+](=O)[O-])cc3)CC(=O)N(CC34CC5CC(CC(C5)C3)C4)[C@@H]2c2ccc(CO)cc21" has z-score of 1.12

Per the record, "CO[C@H]1O[C@H](CO)[C@@H](OC(=O)Nc2ccccc2)[C@H](OC(=O)Nc2ccccc2)[C@H]1OC(=O)Nc1ccccc1" has z-score of -3.14

Per the record, "CCCCC(=C=CC[C@H](O)c1ccc(CO)o1)CCO" has z-score of -0.0295

Per the record, "C=CCN1Cc2ccccc2[C@H]2OC(c3ccc(OCCCO)cc3)=N[C@@]2(CCS(=O)(=O)c2ccccc2)C1=O" has z-score of -0.209

Per the record, C=CC[C@]1(C(=O)NCC(O)CO)COC(c2ccc(OCCCO)cc2)=N1 (stereo not given in full) has z-score of 0.146
